Sourced from patent US20120231005A1

# system: T1, human PCSK9 (human, UniProt Q8NBP7 31-692, limits assumed)
# T1 construct: It carried an AlexaFluor647 label in the TR-FRET assay only; also called hPCSK9; wild type human PCSK9
# T1 sequence (Q8NBP7 31-692 limits assumed): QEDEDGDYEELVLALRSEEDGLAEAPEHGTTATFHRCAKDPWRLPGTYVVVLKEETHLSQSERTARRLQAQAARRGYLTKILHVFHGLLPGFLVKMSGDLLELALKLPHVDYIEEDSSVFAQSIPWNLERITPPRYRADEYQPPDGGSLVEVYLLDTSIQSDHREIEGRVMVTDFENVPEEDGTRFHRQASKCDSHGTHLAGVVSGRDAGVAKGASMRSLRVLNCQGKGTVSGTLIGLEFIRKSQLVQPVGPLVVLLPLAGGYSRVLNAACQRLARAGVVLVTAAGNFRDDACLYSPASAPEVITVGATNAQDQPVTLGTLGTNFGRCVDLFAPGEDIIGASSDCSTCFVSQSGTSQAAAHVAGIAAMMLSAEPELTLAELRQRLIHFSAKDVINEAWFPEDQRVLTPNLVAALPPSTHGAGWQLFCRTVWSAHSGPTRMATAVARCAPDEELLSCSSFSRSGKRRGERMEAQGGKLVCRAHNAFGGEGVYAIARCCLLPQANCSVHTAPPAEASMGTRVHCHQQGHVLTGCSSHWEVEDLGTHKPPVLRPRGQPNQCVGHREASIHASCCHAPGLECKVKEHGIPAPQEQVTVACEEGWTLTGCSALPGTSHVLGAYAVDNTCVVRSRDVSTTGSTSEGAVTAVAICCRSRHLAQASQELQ
# test.summary: SPR (Biacore); Fab captured on anti-Fab IgG, PCSK9 injected; 1:1 Langmuir fit
pKd: −log10 of the molar value.
property: pKd

binder: AX191 Fab (Fab, V domains shown) VH: EVQLLESGGGLVQPGGSLRLSCKASGYTFSSYWMHWVRQAPGKGLEWIGRIDPYNGGTKYNEKFKGKATISRDNSKNTLYLQMNSLRAEDTAVYYCARYGYYLGSYAMDYWGQGTLVTVSS VL: DIQMTQSPSSLSASVGDRVTITCRASQDISKYLAWYQQKPGKAPKLLIYAASSLQSGVPSRFSGSGSGTDFTLTISSLQPEDFATYYCQAYDYSSSAYVFGGGTKVEIK
endpoint.result: 8.28

binder: AX198 Fab (Fab, V domains shown) VH: EVQLLESGGGLVQPGGSLRLSCKASGYTFSSYWMHWVRQAPGKGLEWIGRIDPYNGGTKYNEKFKGKATISRDNSKNTLYLQMNSLRAEDTAVYYCARYGYYLGSYAMDYWGQGTLVTVSS VL: DIQMTQSPSSLSASVGDRVTITCRASQAVSSYLNWYQQKPGKAPKLLIYAASSLQSGVPSRFSGSGSGTDFTLTISSLQPEDFATYYCEAYDYSLGGWVFGGGTKVEIK
endpoint.result: 8.37

binder: AX1 Fab (Fab, V domains shown, Soluble Fab from E. coli TG1 periplasm; Tags encoded by the display vector are not described for the protein) VH: EVQLLESGGGLVQPGGSLRLSCKASGFTFTSYYMHWVRQAPGKGLEWIGRINPDSGSTKYNEKFKGRATISRDNSKNTLYLQMNSLRAEDTAVYYCARGGRLSWDFDVWGQGTLVTVSS VL: DIQMTQSPSSLSASVGDRVTITCRASQDISRYLAWYQQKPGKAPKLLIYAASSLQSGVPSRFSGSGSGTDFTLTISSLQPEDFATYYCAAYDYSLGGYVFGDGTKVEIKR
endpoint.result: 8.22
